assay: Cytotoxicity in HeLa cells, ATP content measured with the ATPlite kit
Format: cell-based
details: human, TOX HELA pCC50
The entries below come with measured CC50 at 3 days values attached.

compound	CC50 at 3 days
CCc1cc(C(=O)N2CCCCCC2C)nc2cc(-c3ccc(-c4cccnc4F)cc3F)nn12 (centres unmarked)	> 25.1 µM
C[C@@H]1c2ccccc2CCN1C(=O)c1cc(C2(C)CC2)n2nc(-c3ccc(-n4cc(C(=O)O)cn4)cc3F)cc2n1	> 100 µM
CCc1cc(C(=O)N2CCCCC[C@H]2C)nc2cc(-c3ccc(N(C)c4cc(C(=O)O)nn4C)cc3F)nn12	21.9 µM
CCc1cc(C(=O)N2CCCCCC2C)nc2cc(-c3ccc(NC(=O)c4nccn4C)cc3)nn12 (centres unmarked)	21.9 µM
CCc1cc(C(=O)N2CCCCCC2C)nc2cc(-c3ccc(NC(=O)NCC4CC4)cc3)nn12 (centres unmarked)	> 100 µM

For C[C@@H]1CCCCCN1C(=O)c1cc(C2CCC2)n2nc(-c3ccc(-c4ccc(C(=O)O)cn4)cc3F)cc2n1 , what is its reported CC50 at 3 days?
32.4 µM

All figures here come from patent US11084826B2.
